Where do the numbers come from? From PubChem BioAssay AID1159506.

- run.description: Identification of proteins required for the processing of the EWS-FLI1 nascent transcript;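 note: robust z of luciferase light less the median z of siRNAs with the same seed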
- experimental.setup: TC32 Ewing sarcoma NR0B1-luc vs CMV-luc (EWS-FLI1 target promoter against control promoter), 48 h; screened at 20 nM (by protocol)
- Method: Ewing sarcoma (ES) cells depend on the EWS-FLI1 fusion transcription factor for cell survival. […] Luciferase activity was assessed 48 hours post siRNA-transfection. Twenty microl of serum-free media containing Lipofectamine RNAiMax (0.05 microl) was added to wells containing siRNA (0.8 pmol). […] Luciferase expression was measured using OneGlo (Promega, Madison, WI). […]
The full ranking holds about 59,000 sequences; the median of the read-out is about -0.00055, and the lowest 2% start at about -2. The sample as a whole holds a higher share of the lowest values than the screen did.
Each record is given label 1 if its reported seed-corrected z-score is strictly below -0.2. Records at or above -0.2 are given label 0.

biopolymer.sequence: UCCUUGUCGAACAUGAGCC against NTNG2
assigned.class: label 1

biopolymer.sequence: UUUCUCUGAAGUUAAGUCC against G0S2
assigned.class: label 0

biopolymer.sequence: UUCGUUUCGUCUCUUCUAG against ESCO1
assigned.class: label 0

biopolymer.sequence: AACCUUUAACUUGUGCUCC against ELAC2
assigned.class: label 0

Here's an entry: ACCAGUAUAACCCAGAGUC against FCGR1A . Is its seed-corrected z-score below -0.2?
label 0

Does UUCAAGUUUGUUCUCAGAC against GOLGA6L7P have seed-corrected z-score strictly under -0.2?
label 1
